Biological target: Type-1 angiotensin II receptor B (Rattus norvegicus, UniProt P29089)
Sequence (P29089 whole entry): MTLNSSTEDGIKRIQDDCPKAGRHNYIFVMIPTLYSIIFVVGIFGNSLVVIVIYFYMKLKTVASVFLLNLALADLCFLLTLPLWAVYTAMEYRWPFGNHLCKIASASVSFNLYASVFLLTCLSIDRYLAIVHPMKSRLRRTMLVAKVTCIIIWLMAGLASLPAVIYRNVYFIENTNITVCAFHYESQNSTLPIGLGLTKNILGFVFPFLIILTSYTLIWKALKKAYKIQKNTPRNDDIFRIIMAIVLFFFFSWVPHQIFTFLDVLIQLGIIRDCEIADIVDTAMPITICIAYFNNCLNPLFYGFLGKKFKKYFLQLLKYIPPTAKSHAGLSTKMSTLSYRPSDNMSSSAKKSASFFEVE
READOUT_TYPE: Ki (nM)
One number for each entry, in nM.

In plain terms, `CCc1nn(Cc2ccc(-c3ccccc3-c3nnn[nH]3)cc2)c(=NC(=O)c2ccccc2Cl)s1` has a documented Ki of 3.4
